Measured TGI, listed per entry.
Tested on: IGROV1 ovarian
ASSAY_PROCEDURE: NCI tumour cell line growth inhibition, 48 h
RECORDED_METRIC: TGI

{"columns": ["COMPOUND", "VAL"],
 "data": [
  ["CC(=O)C1C(=O)C(=O)N(c2ccccc2)C1=O (stereo not drawn)", "> 100 µM"],
  ["COC(=O)[C@H](Cc1ccccc1)NC(=O)/C(=C/C(C)C)NC(=O)[C@H](CCSC)NC=O", "> 100 µM"],
  ["O=C1C(C(O)(C(F)(F)Cl)C(F)(F)Cl)CCCC1C(O)(C(F)(F)Cl)C(F)(F)Cl (stereo not drawn)", "> 10 µM"]
]}

----------
Measured TGI, listed per entry.
Test system: UO-31 renal
ASSAY_PROCEDURE: NCI tumour cell line growth inhibition, 48 h

{"columns": ["COMPOUND", "TGI"],
 "data": [
  ["CCOC(=O)c1ccc(Nc2sc(C(=O)c3ccc(Br)cc3)c(N)c2C#N)cc1", "> 100 µM"],
  ["O=C1c2cccnc2S(=O)(=O)N1c1ccc(Oc2ccccc2)cc1", "> 100 µM"],
  ["COc1nc2ccc(COc3ccc(C(=O)NC(CCC(=O)O)C(=O)O)cc3)cc2nc1OC (stereo unspecified)", "> 10 µM"],
  ["CC(=O)OC1CC2CCN3C(=O)c4cc5c(cc4[C@H](C1OC(C)=O)C23)OCO5 (stereo partly specified)", "> 100 µM"],
  ["Nc1c(C(=O)c2ccc(-c3cccnc3)cc2)cnn1-c1ccc(F)cc1", "> 22 µM"],
  ["CCOC1=NC(C(F)(F)F)(C(F)(F)F)N=C(N2CCOCC2)O1", "> 100 µM"],
  ["NC1=NC2=c3ccccc3=C(c3cnccn3)C2(c2cnccn2)c2ccccc21 (stereo unspecified)", "> 100 µM"],
  ["COc1ccc(/C=C(/C(=O)N2CCN(c3ccccc3)CC2)c2cc(OC)c(OC)c(OC)c2)cc1N", "> 100 µM"],
  ["Cc1nc2c(c(=O)[nH]1)S/C(=C(/C#N)c1nc3ccccc3[nH]1)N2c1ccccc1", "> 100 µM"],
  ["Cc1sc2[nH]c(=O)oc(=O)c2c1C", "> 83.3 µM"],
  ["CCN1CCCC(C#N)(c2ccccc2)CC1 (stereo unspecified)", "> 100 µM"]
]}

----------
Test system: A498 renal
ASSAY_PROCEDURE: NCI tumour cell line growth inhibition, 48 h
Measured TGI, listed per entry.

{"columns": ["MOLECULE", "TGI"],
 "data": [
  ["c1ccc2c(c1)NCCC(=NC1CCCCC1)N2", "> 100 µM"],
  ["CN1C(=O)CCC2[C@@H]3CC=C4C[C@@H](O)CC[C@]4(C)C3CC[C@@]21C (some centres undefined)", "> 100 µM"],
  ["Oc1cc(O)c2ccc(-c3ccc(O)c(O)c3)[o+]c2c1", "> 100 µM"],
  ["O=C1C(Cl)=C(Sc2nnc3c4ccccc4c4ccccc4c3n2)C(=O)c2ccccc21", "37.2 µM"]
]}

----------
Test system: HS 578T breast
ASSAY_PROCEDURE: NCI tumour cell line growth inhibition, 48 h
Measured GI50, listed per entry.

{"columns": ["CHEM_SMILES", "GI50"],
 "data": [
  ["CCOC(=O)c1ccc(Nc2sc(C(=O)c3ccc(Br)cc3)c(N)c2C#N)cc1", "1.48 µM"],
  ["C[C@]12CC[C@@H]3c4cc(OC(F)F)c(O)cc4CC[C@H]3[C@@H]1CC[C@@H]2OS(N)(=O)=O", "0.475 µM"],
  ["C[C@]12CCc3nc(Nc4cccc(O)c4)sc3C1=CC[C@@H]1[C@@H]2CC[C@]2(C)/C(=N\\NC(N)=S)CC[C@@H]12", "0.843 µM"],
  ["CSc1ccc(-c2ccccc(=O)c2O)cc1", "2.77 µM"],
  ["NCCCNc1nc2ccccc2c2c(=O)c3cc(F)cc(F)c3sc12", "1.47 µM"],
  ["O=C(/C=C/c1ccco1)c1cc(F)c(Cl)cc1Cl", "13.7 µM"],
  ["CN(C)c1ccc(/C=C/c2ccnc3c(O)cccc23)cc1", "0.85 µM"],
  ["Nc1c(C(=O)c2ccc(-c3cccnc3)cc2)cnn1-c1ccc(F)cc1", "> 25 µM"],
  ["Cc1ccc(Cl)cc1Nc1nc(C(F)(F)F)ccc1C(=O)N/N=C/c1cccnc1", "4.05 µM"]
]}

----------
System: SR leukemia
ASSAY_PROCEDURE: NCI tumour cell line growth inhibition, 48 h
Measured TGI, listed per entry.

{"columns": ["COMPOUND", "TESTED_ON", "TGI"],
 "data": [
  ["COc1ccc(C(CCC(C)=O)C(=O)O)cc1OC (stereo unspecified)", "SR leukemia", "> 100 µM"],
  ["Cc1c(O)c2ccccc2oc1=O", "SR leukemia", "> 100 µM"],
  ["Cc1ccc(NC(=O)c2ccc(CN3CCN(C)CC3)cc2)cc1Nc1nccc(-c2cccnc2)n1", "SR leukemia", "> 51.3 µM"],
  ["C[C@]12CC[C@@H]3c4cc(OC(F)F)c(O)cc4CC[C@H]3[C@@H]1CC[C@@H]2OS(N)(=O)=O", "SR leukemia", "> 100 µM"],
  ["CCN(CC)C(=O)Cn1c(-c2ccccc2)cc2ccccc21", "SR leukemia", "> 100 µM"],
  ["Cn1c(NNc2ccccc2)cc(=O)[nH]c1=O", "SR leukemia", "> 100 µM"],
  ["CC1(C)CC(O)C2=C(O1)C(=O)c1ncccc1C2=O (stereo unspecified)", "SR leukemia", "> 19.8 µM"],
  ["Cc1cc([N+](=O)[O-])ccc1Sc1c2ccccc2nc2cc(Cl)ccc12", "SR leukemia", "> 100 µM"],
  ["CC(=O)N(C)c1ccc(N=CN(C)C)cc1", "SR leukemia", "> 100 µM"],
  ["CCOC(=O)CCC(NC(=O)Cc1ccc(Nc2nc3ccccc3nc2-c2cccs2)cc1)C(=O)OCC (stereo unspecified)", "SR leukemia", "> 100 µM"],
  ["CC(=O)Nc1ccccc1-c1nc2ccccc2nc1C", "SR leukemia", "> 100 µM"],
  ["COc1cccc2ccc(C(=O)c3ccccc3)nc12", "SR leukemia", "> 100 µM"],
  ["CCOC(=O)c1ccc(Nc2sc(C(=O)c3ccc(Br)cc3)c(N)c2C#N)cc1", "SR leukemia", "> 45.5 µM"],
  ["CC(=O)OCC(OC(C)=O)C(OC(C)=O)C(/C=N\\Nc1nc2ccccc2c(=O)[nH]1)=N\\Nc1nc2ccccc2c(=O)[nH]1 (stereo unspecified)", "SR leukemia", "> 100 µM"],
  ["O=C(NC(Cl)(C(F)(F)F)C(F)(F)F)c1ccc(F)cc1", "SR leukemia", "> 100 µM"],
  ["COC(=O)CCC(NC(=S)N/N=C/c1ccccn1)C(=O)OC (stereo unspecified)", "SR leukemia", "> 100 µM"],
  ["O=C(/C=C/c1ccco1)c1cc(F)c(Cl)cc1Cl", "SR leukemia", "> 100 µM"],
  ["Cc1c2ccnc(C(=O)NCCN(C)C)c2cc2c3cc(O)ccc3n(C)c12", "SR leukemia", "< 0.0564 µM"],
  ["CN(C)c1ccc(/C=C/c2ccnc3c(O)cccc23)cc1", "SR leukemia", "> 100 µM"],
  ["COc1ccc(N=C2S/C(=N\\C(=Nc3ccccc3)SCc3ccccc3)N(c3ccccc3)C2=Nc2ccc(OC)cc2)cc1", "SR leukemia", "> 100 µM"],
  ["Nc1nc2c(ncn2C2CCC(CO)O2)c(=O)n1C(=O)c1ccccc1 (stereo unspecified)", "SR leukemia", "> 100 µM"],
  ["O=C1/C(=N\\O)c2ccccc2S1(=O)=O", "SR leukemia", "> 100 µM"],
  ["Cc1c(C)c(C)c(CC2(C)CSC2)c(CC2(C)CSC2)c1C", "SR leukemia", "> 100 µM"],
  ["O=C(O)CSC(CC1(c2ccc(Cl)cc2)NC(=O)CS1)c1ccc(Cl)cc1 (stereo unspecified)", "SR leukemia", "> 100 µM"],
  ["COC(=O)[C@H](Cc1ccccc1)NC(=O)/C(=C/C(C)C)NC(=O)[C@H](CCSC)NC=O", "SR leukemia", "> 100 µM"],
  ["COc1c(O)c(OC)c2oc(-c3ccc(O)c(O)c3)c(OC)c(=O)c2c1O", "SR leukemia", "> 100 µM"]
]}

----------
Test system: TK-10 renal
ASSAY_PROCEDURE: NCI tumour cell line growth inhibition, 48 h
RECORDED_METRIC: TGI

{"columns": ["COMPOUND", "VAL"],
 "data": [
  ["Oc1cc(O)c2ccc(-c3ccc(O)c(O)c3)[o+]c2c1", "> 100 µM"],
  ["Oc1ccc2c(c1)CCc1c-2n(CCN2CCOCC2)c2ccc(O)cc12", "> 100 µM"],
  ["Nc1ccc2nc3c(nc2c1)C(=O)c1ccccc1-3", "> 100 µM"],
  ["CCN(CC)C(=O)Cn1c(-c2ccccc2)cc2ccccc21", "> 100 µM"],
  ["O=C(NC(Cl)(C(F)(F)F)C(F)(F)F)c1ccc(F)cc1", "> 100 µM"],
  ["O=C(c1cc2ccccc2[nH]1)N1C2CCC1CN(CCOC(c1ccc(F)cc1)c1ccc(F)cc1)CC2 (stereo unspecified)", "> 100 µM"]
]}
